test system: HCT116 cancer cells; experiment: In vitro combination study with Compound 1, Cell Titer-Glo (ATP) cell viability, 72 h; format: cell-based; settings: Table 5 drug combined with Compound 1; 72 h;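 note: combination call from 10×10 dose matrices in duplicate, graded by synergy, with percent activity per well relative to DMSO vehicle controls on the same plate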
Where a name gives a salt, the structure may show the parent alone.
Measurement Type: Call, anti-proliferative effect of combination with Compound 1, HCT116

# Compound, Meas Value
measured = [
    ("CC[C@]1(O)C[C@H]2CN(CCc3c([nH]c4ccccc34)[C@@](C(=O)OC)(c3cc4c(cc3OC)N(C=O)[C@H]3[C@@](O)(C(=O)OC)[C@H](OC(C)=O)[C@]5(CC)C=CCN6CC[C@]43[C@@H]65)C2)C1 [Vincristine sulfate]", "Additivity (0.7 to 1.3)"),
    ("C/C=C(/C)C(=O)O[C@H]1C(C)=C2[C@H]([C@@H]1OC(=O)CCCCCCC)[C@@](C)(OC(C)=O)C[C@H](OC(=O)CCC)[C@@]1(O)[C@H]2OC(=O)[C@@]1(C)O", "Additivity (0.7 to 1.3)"),
]

Origin of measurements: patent US20220323443A1
